These measurements were taken from patent US5786328A.

# target-under-test: TF-FVIIa (Homo sapiens, UniProt P08709)
# Construct: purchased Haematologic Technologies Inc. (Essex Jct., VT) for FVIIa; TF made in house; host or cells: TF1-243: E. coli
# Sequence (P08709 61-212 limits assumed): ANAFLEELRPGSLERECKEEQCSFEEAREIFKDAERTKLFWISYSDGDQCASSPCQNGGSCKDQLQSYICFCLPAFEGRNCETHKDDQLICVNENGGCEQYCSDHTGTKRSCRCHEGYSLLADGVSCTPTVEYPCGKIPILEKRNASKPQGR
# Sequence (P08709 213-466 limits assumed): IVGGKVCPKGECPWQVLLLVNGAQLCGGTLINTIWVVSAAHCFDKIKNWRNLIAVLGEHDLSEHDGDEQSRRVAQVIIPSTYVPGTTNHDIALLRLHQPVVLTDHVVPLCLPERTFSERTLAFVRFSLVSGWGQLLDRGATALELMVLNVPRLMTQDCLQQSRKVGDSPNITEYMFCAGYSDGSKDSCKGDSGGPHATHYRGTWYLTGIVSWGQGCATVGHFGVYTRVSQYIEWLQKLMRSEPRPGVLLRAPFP
# Sequence (P13726 33-275 partner limits assumed): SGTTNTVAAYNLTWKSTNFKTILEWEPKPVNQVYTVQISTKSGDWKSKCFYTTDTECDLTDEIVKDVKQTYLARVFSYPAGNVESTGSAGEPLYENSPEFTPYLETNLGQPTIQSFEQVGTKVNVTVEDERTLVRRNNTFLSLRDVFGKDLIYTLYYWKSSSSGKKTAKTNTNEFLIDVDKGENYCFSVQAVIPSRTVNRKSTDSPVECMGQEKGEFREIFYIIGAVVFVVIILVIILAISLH
# measurement-protocol: Specificity assay, fraction of remaining proteolytic activity
# Assay type: biochemical
# settings: 100 nM inhibitor; TF 77 nM, FVIIa 14 nM
Collected fraction of remaining proteolytic activity, TF·Factor VIIa values appear next to each entry.

The cases that follow already have their fraction of remaining proteolytic activity, TF·Factor VIIa on record.
KALI-8: APPI Kunitz domain mutant, R1 LGHCRAAIPR2 FR3 (SEQ ID NO: 3) (VREVCSEQAELGHCRAAIPRWYFDVTEGKCAPFFYGGCGGNRNNFDTEEYCAAVCGSA) = 0.94
KALI-13: APPI Kunitz domain mutant, R1 SGHCRAAIPR2 FR3 (SEQ ID NO: 1) (VREVCSEQAESGHCRAAIPRWYFDVTEGKCAPFFYGGCGGNRNNFDTEEYCAAVCGSA) = 0.96
KALI-46: APPI Kunitz domain mutant, R1 EGRCRASILR2 FR3 (SEQ ID NO: 33) (VREVCSEQAEEGRCRASILRWYFDVTEGKCAPFFYGGCGGNRNNFDTEEYCAAVCGSA) = 0.86

Query :: Return reported fraction of remaining proteolytic activity, TF·Factor VIIa. Input substance: KALI-48: APPI Kunitz domain mutant, R1 TGHCRAAIPR2 FR3 (SEQ ID NO: 2) (VREVCSEQAETGHCRAAIPRWYFDVTEGKCAPFFYGGCGGNRNNFDTEEYCAAVCGSA)
Result :: 0.95
